# Target of assay: UniProtKB P33261
# Method description: Percent inhibition of formation of metabolic intermediate complex between Cytochrome P450 and compound 1a (30 uM) initially, following incubation at compound concentration of 0 uM
# Assay type: ADME, Oryctolagus cuniculus
# Assay context: rabbit, probe compound 1a (30 uM)
Measure: inhibition at 0 uM

Enquiry: Give inhibition at 0 uM for the following compound: COc1cc(C[C@@H](C)NO)c(OC)cc1C.COc1cc(C[C@H](C)NO)c(OC)cc1C
Return: 30%

====

# Target of assay: Cytochrome P450 2C19 (Homo sapiens)
# Method description: Percent inhibition of formation of metabolic intermediate complex between Cytochrome P450 and compound 1a (30 uM) initially, following incubation at compound concentration of 30 uM
# Format: ADME, Oryctolagus cuniculus
# Assay context: rabbit, probe compound 1a (30 uM)
Measure: inhibition at 30 µM (%)
Form entry: value (%) — number only.

Enquiry: Give inhibition at 30 µM for the following molecule: COc1cc(C[C@@H](C)NO)c(OC)cc1C.COc1cc(C[C@H](C)NO)c(OC)cc1C
Return: 74

====

# Target of assay: Cytochrome P450 2C19 (Homo sapiens)
# Method description: Percent inhibition of formation of metabolic intermediate complex between Cytochrome P450 and compound 1a (30 uM) initially, on pre-incubation with compound concentration of 30 uM
# Type: ADME, Oryctolagus cuniculus
# Assay context: rabbit, probe compound 1a (30 uM)
Measure: inhibition at 30 µM
Provide the measurement as a number trailed by its unit.

Enquiry: Give inhibition at 30 µM for the following molecule: COc1cc(C[C@@H](C)NO)c(OC)cc1C.COc1cc(C[C@H](C)NO)c(OC)cc1C
Return: 100%

====

# Target of assay: Cytochrome P450 2C19 (Homo sapiens)
# Method description: Percent inhibition of formation of metabolic intermediate complex between Cytochrome P450 and compound 1a (30 uM) initially, on pre-incubation with compound concentration of 5 uM
# Format: ADME, Oryctolagus cuniculus
# Assay context: rabbit, probe compound 1a (30 uM)
Measure: inhibition at 5 µM (%)
Form entry: value (%) — number only.

Enquiry: Would you please give the reported inhibition at 5 µM of COc1cc(C[C@@H](C)NO)c(OC)cc1C.COc1cc(C[C@H](C)NO)c(OC)cc1C with Cytochrome P450 2C19 (Homo sapiens)?
Return: 80

====

# Method description: Lag time between the addition of compound (30 uM) and the first appearance of chromophore
# Type: ADME
Measure: Lag time (s)
Form entry: value (s) — number only.

Examples from the recorded data:
Smiles representation	Value reported
COc1cc(C[C@@H](C)N)c(OC)cc1C.COc1cc(C[C@H](C)N)c(OC)cc1C	138
COc1cc(C[C@@H](C)NO)c(OC)cc1C.COc1cc(C[C@H](C)NO)c(OC)cc1C	0
COc1cc(C[C@@H](C)NO)c(OC)cc1C	0
COc1cc(C[C@H](C)NO)c(OC)cc1C	0
COc1cc(C[C@@H](C)N)c(OC)cc1C	14

Now turn to the next molecule.
Enquiry: Give Lag time for the following molecule: COc1cc(C[C@H](C)N)c(OC)cc1C
Return: 136

====

# Target of assay: Cytochrome P450 2C19 (Homo sapiens)
# Method description: Percent inhibition of formation of metabolic intermediate complex between Cytochrome P450 and compound 1a (30 uM) on extent, following incubation at compound concentration of 0 uM
# Format: ADME, Oryctolagus cuniculus
# Assay context: rabbit, probe compound 1a (30 uM)
Measure: inhibition at 0 uM (%)
Form entry: value (%) — number only.

Enquiry: Give inhibition at 0 uM for the following molecule: COc1cc(C[C@@H](C)NO)c(OC)cc1C.COc1cc(C[C@H](C)NO)c(OC)cc1C
Return: 30

====

# Target of assay: Cytochrome P450 2C19 (Homo sapiens, UniProt P33261)
# Sequence (P33261 whole entry): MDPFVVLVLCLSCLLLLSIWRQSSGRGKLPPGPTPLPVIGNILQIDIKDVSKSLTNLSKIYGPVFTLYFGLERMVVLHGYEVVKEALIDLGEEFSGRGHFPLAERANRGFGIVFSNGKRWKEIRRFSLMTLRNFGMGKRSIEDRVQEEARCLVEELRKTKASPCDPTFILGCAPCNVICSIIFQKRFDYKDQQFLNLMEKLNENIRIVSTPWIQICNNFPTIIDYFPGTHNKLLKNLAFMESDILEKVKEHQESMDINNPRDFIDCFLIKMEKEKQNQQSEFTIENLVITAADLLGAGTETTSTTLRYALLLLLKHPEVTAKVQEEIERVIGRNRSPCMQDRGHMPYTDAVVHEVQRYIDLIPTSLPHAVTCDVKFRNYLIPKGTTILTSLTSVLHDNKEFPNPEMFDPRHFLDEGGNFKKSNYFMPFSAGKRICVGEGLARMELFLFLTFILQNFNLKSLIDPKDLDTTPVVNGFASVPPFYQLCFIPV
# Method description: Percent inhibition of formation of metabolic intermediate complex between Cytochrome P450 and compound 1a (30 uM) on extent, following incubation at compound concentration of 20 uM
# Format: ADME, Oryctolagus cuniculus
# Assay context: rabbit, probe compound 1a (30 uM)
Measure: inhibition at 20 µM (%)
Form entry: value (%) — number only.

Enquiry: Give inhibition at 20 µM for the following molecule: COc1cc(C[C@@H](C)NO)c(OC)cc1C.COc1cc(C[C@H](C)NO)c(OC)cc1C
Return: 27

====

# Target of assay: Cytochrome P450 2C19 (Homo sapiens)
# Method description: Percent inhibition of formation of metabolic intermediate complex between Cytochrome P450 and compound 1a (30 uM) initially, following incubation at compound concentration of 30 uM
# Assay type: ADME, Oryctolagus cuniculus
# Assay context: rabbit, probe compound 1a (30 uM)
Measure: inhibition at 30 µM (%)
Form entry: value (%) — number only.

Enquiry: Give inhibition at 30 µM for the following molecule: COc1cc(C[C@@H](C)NO)c(OC)cc1C.COc1cc(C[C@H](C)NO)c(OC)cc1C
Return: 72

====

# Target of assay: Cytochrome P450 2C19 (Homo sapiens)
# Method description: Percent inhibition of formation of metabolic intermediate complex between Cytochrome P450 and compound 1b (30 uM) on extent, following incubation at compound concentration of 20 uM
# Assay type: ADME, Oryctolagus cuniculus
# Assay context: rabbit, probe compound 1b (30 uM)
Measure: inhibition at 20 µM (%)
Form entry: value (%) — number only.

Enquiry: Give inhibition at 20 µM for the following molecule: COc1cc(C[C@@H](C)NO)c(OC)cc1C.COc1cc(C[C@H](C)NO)c(OC)cc1C
Return: 13

====

# Target of assay: Cytochrome P450 2C19 (Homo sapiens)
# Method description: Percent inhibition of formation of metabolic intermediate complex between Cytochrome P450 and compound 1a (30 uM) on extent, on pre-incubation with compound concentration of 30 uM
# Format: ADME, Oryctolagus cuniculus
# Assay context: rabbit, probe compound 1a (30 uM)
Measure: inhibition at 30 µM

Enquiry: Give inhibition at 30 µM for the following compound: COc1cc(C[C@@H](C)NO)c(OC)cc1C.COc1cc(C[C@H](C)NO)c(OC)cc1C
Return: 100%

====

# Target of assay: Cytochrome P450 2C19 (Homo sapiens)
# Method description: Percent inhibition of formation of metabolic intermediate complex between Cytochrome P450 and compound 1a (30 uM) initially, on pre-incubation with compound concentration of 0 uM
# Assay type: ADME, Oryctolagus cuniculus
# Assay context: rabbit, probe compound 1a (30 uM)
Measure: inhibition at 0 uM (%)
Form entry: value (%) — number only.

Enquiry: Give inhibition at 0 uM for the following compound: COc1cc(C[C@@H](C)NO)c(OC)cc1C.COc1cc(C[C@H](C)NO)c(OC)cc1C
Return: 0

====

# Target of assay: Cytochrome P450 2C19 (Homo sapiens, UniProt P33261)
# Method description: Apparent binding affinity constant of compound (1.8-60.0) for Cytochrome P450
# Format: ADME, Oryctolagus cuniculus
# Assay context: read-out: Ks
Measure: Kd (µM)
Form entry: value (µM) — number only.

Enquiry: Give Kd for the following compound: COc1cc(C[C@H](C)N)c(OC)cc1C
Return: 6

====

# Target of assay: Cytochrome P450 2C19 (Homo sapiens)
# Method description: Percent inhibition of formation of metabolic intermediate complex between Cytochrome P450 and compound 1a (30 uM) on extent, on pre-incubation with compound concentration of 5 uM
# Assay type: ADME, Oryctolagus cuniculus
# Assay context: rabbit, probe compound 1a (30 uM)
Measure: inhibition at 5 µM (%)
Form entry: value (%) — number only.

Enquiry: Give inhibition at 5 µM for the following molecule: COc1cc(C[C@@H](C)NO)c(OC)cc1C.COc1cc(C[C@H](C)NO)c(OC)cc1C
Return: 43

====

# Target of assay: Cytochrome P450 2C19 (Homo sapiens)
# Method description: Percent inhibition of formation of metabolic intermediate complex between Cytochrome P450 and compound 1a (30 uM) on extent, following incubation at compound concentration of 15 uM
# Assay type: ADME, Oryctolagus cuniculus
# Assay context: rabbit, probe compound 1a (30 uM)
Measure: inhibition at 15 µM (%)
Form entry: value (%) — number only.

Enquiry: Give inhibition at 15 µM for the following compound: COc1cc(C[C@@H](C)NO)c(OC)cc1C.COc1cc(C[C@H](C)NO)c(OC)cc1C
Return: 46

====

# Target of assay: Cytochrome P450 2C19 (Homo sapiens, UniProt P33261)
# Method description: Percent inhibition of formation of metabolic intermediate complex between Cytochrome P450 and compound 1a (30 uM) initially, on pre-incubation with compound concentration of 15 uM
# Assay type: ADME, Oryctolagus cuniculus
# Assay context: rabbit, probe compound 1a (30 uM)
Measure: inhibition at 15 µM (%)
Form entry: value (%) — number only.

Enquiry: Give inhibition at 15 µM for the following compound: COc1cc(C[C@@H](C)NO)c(OC)cc1C.COc1cc(C[C@H](C)NO)c(OC)cc1C
Return: 100

====

# Target of assay: Cytochrome P450 2C19 (Homo sapiens, UniProt P33261)
# Method description: Percent inhibition of formation of metabolic intermediate complex between Cytochrome P450 and compound 1a (30 uM) initially, following incubation at compound concentration of 20 uM
# Format: ADME, Oryctolagus cuniculus
# Assay context: rabbit, probe compound 1a (30 uM)
Measure: inhibition at 20 µM
Provide the measurement as a number trailed by its unit.

Enquiry: Give inhibition at 20 µM for the following molecule: COc1cc(C[C@@H](C)NO)c(OC)cc1C.COc1cc(C[C@H](C)NO)c(OC)cc1C
Return: 29%

Origin of the recorded values: ChEMBL document CHEMBL1121797
